Target: PI3Kbeta (Homo sapiens, UniProt P42338)
Sequence (P42338 whole entry): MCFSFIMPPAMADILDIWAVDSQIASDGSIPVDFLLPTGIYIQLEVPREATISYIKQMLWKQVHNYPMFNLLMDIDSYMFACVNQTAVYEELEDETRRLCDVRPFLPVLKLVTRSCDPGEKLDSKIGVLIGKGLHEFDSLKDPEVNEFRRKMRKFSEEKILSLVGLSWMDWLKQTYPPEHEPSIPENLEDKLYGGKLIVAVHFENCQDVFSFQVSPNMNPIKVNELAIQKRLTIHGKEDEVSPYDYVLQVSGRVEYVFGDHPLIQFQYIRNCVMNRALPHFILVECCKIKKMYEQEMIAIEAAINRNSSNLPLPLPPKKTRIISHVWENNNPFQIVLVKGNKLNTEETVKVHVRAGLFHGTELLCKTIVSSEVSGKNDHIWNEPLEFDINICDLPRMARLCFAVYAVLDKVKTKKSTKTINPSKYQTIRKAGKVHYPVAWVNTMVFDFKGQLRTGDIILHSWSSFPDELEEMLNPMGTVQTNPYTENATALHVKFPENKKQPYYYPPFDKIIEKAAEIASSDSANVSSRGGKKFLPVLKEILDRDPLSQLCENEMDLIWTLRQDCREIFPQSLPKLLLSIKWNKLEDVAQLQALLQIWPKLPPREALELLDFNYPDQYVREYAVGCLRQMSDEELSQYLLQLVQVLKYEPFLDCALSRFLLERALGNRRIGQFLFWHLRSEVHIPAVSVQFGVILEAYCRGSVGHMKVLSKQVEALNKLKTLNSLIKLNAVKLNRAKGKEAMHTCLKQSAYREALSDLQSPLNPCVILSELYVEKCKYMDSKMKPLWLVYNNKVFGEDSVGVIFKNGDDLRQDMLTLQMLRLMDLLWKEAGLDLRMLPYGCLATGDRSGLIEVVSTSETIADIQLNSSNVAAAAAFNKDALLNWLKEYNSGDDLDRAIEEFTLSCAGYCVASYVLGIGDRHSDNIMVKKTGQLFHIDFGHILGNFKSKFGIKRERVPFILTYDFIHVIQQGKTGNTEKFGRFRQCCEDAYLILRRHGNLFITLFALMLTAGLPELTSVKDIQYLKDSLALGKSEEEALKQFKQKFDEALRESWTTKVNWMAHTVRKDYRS
Sequence (P27986 whole entry partner): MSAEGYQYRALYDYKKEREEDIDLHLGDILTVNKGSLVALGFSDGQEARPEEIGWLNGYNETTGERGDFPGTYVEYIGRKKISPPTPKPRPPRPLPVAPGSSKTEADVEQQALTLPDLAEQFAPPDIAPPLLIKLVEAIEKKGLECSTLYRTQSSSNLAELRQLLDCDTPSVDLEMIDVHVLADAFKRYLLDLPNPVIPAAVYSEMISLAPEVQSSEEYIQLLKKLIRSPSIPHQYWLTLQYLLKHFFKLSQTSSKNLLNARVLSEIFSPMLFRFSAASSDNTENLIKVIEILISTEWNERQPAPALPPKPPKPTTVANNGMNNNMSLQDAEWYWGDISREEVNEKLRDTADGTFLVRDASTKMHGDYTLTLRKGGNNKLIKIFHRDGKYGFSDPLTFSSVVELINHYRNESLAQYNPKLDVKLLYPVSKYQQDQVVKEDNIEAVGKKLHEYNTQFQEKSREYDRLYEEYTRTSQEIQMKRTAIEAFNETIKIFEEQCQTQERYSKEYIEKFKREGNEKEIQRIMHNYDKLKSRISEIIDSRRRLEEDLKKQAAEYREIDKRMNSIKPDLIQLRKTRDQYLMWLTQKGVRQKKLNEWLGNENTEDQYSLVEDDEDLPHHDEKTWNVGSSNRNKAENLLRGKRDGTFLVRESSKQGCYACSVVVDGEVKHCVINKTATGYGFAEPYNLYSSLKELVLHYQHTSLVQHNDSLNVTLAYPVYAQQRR
Assay: Biochemical PI3Kbeta assay (neomycin SPA, lipid phosphorylation)
Conditions: human recombinant GST-PI3K
Procedure: The efficacy of the compounds according to the invention in the inhibition of PI3K-induced lipid phosphorylation can be investigated in the following binding assay. […] After precipitation of the neomycin-coated PVT-SPA beads over 5 minutes at 1500×g, radioactive Ptdlns(3)P is quantified by scintillation counting in a Wallac Micro-Beta™ plate counter.
pIC50: −log10 of the molar value.
pIC50 values, listed per item

{"columns": ["Smiles String", "pIC50"],
 "data": [
  ["Cn1cc(-c2cc(-c3cnc4ccccc4c3)ccn2)n(-c2ccc(N3CCNCC3)c(C(F)(F)F)c2)c1=O", "5.00 to 7.00"],
  ["CC(=O)N1CCN(c2ccc(-n3c(-c4cc(-c5ccc6[nH]ccc6c5)ccn4)cn(C)c3=O)cc2C(F)(F)F)CC1", "< 5.00"],
  ["COc1ccc(-c2ccnc(-c3c[nH]c(=O)n3-c3ccc(N4CCNCC4)c(C(F)(F)F)c3)c2)cn1", "5.00 to 7.00"],
  ["Cc1cc2cc(-c3ccnc(-c4cn(C)c(=O)n4-c4ccc(C(C)(C)C#N)cc4)c3)cnc2[nH]1", "5.00 to 7.00"],
  ["Cn1cc(-c2cc(-c3cnc4[nH]ccc4c3)ccn2)n(-c2ccc(CC#N)cc2)c1=O", "5.00 to 7.00"]
]}

Query: Give the measured pIC50 of `CN1CCN(c2ccc(-n3c(-c4cc(-c5cnc6[nH]ccc6c5)ccn4)cn(C)c3=O)cc2C#N)CC1` .
Response: 5.00 to 7.00

Query: Data request, read-out pIC50, for `CCc1cccc(-n2c(-c3cc(-c4cnc5[nH]ccc5c4)ccn3)cn(C)c2=O)c1`
Response: < 5.00

Query: Sample `COc1ccc(-c2ccnc(-c3c[nH]c(=O)n3-c3ccc(C(C)(C)C#N)cc3)c2)cn1` — what was its pIC50?
Response: 5.00 to 7.00

Query: What pIC50 value was documented for this molecule, `Cn1cc(-c2cc(-c3cnc(N)c(C#N)c3)ccn2)n(-c2ccc(N3CCNCC3)c(C(F)(F)F)c2)c1=O` ?
Response: 5.00 to 7.00

Query: pIC50 lookup needed for `Cn1cc(-c2cc(-c3cnc4ccccc4c3)ccn2)n(-c2ccc(C(C)(C)C(=O)O)cc2)c1=O` , thanks.
Response: < 5.00

Query: Report pIC50 for `N#Cc1cccc(-n2c(-c3cc(-c4cnc5[nH]ccc5c4)ccn3)cn(C(F)F)c2=O)c1` please.
Response: < 5.00

Query: Quick check: pIC50 of `Cn1cc(-c2cc(-c3cnc(N)c(-c4ccccc4)c3)ccn2)n(-c2ccc(C(C)(C)C#N)cc2)c1=O` ?
Response: 5.00 to 7.00

Query: Please give the measured pIC50 for this molecule: `CC(C)(C#N)c1ccc(-n2c(-c3cc(-c4cnc5[nH]ccc5c4)ccn3)c[nH]c2=O)cc1`
Response: 5.00 to 7.00

Query: # query: pIC50 of entry `Cn1cc(-c2cc(-c3cnc4c(c3)CCN4)ccn2)n(-c2ccc(C(C)(C)C#N)cc2)c1=O`
Response: 5.00 to 7.00

Query: Would you kindly share the measured pIC50 for `Cn1cc(-c2cc(-c3cnc(N)c(C(F)(F)F)c3)ccn2)n(-c2cccc(C#N)c2)c1=O` ?
Response: 5.00 to 7.00

Query: Quick check: pIC50 of `CN1CCN(c2ccc(-n3c(-c4cc(-c5cnc(N)c(C(F)(F)F)c5)ccn4)cn(C)c3=O)cc2C(F)(F)F)CC1` ?
Response: 5.00 to 7.00

Query: // lookup pIC50 for `Cn1cc(-c2cc(-c3cnc4[nH]ncc4c3)ccn2)n(-c2ccc(C(C)(C)C#N)cc2)c1=O`
Response: 5.00 to 7.00

Query: Request the reported pIC50 associated with `Cn1cc(-c2cc(-c3ccc4ncncc4c3)ccn2)n(-c2ccc(C(C)(C)C#N)cc2)c1=O`
Response: < 5.00

Query: Fill in the blank: the reported pIC50 of `CN1CCN(c2cc(C#N)cc(-n3c(-c4cc(-c5cnc6[nH]ccc6c5)ccn4)cn(C)c3=O)c2)CC1` is ____.
Response: 5.00 to 7.00

###

Molecular target: DNA-PK protein complex (Homo sapiens)
Test: Biochemical DNA-PK assay (FlashPlate)
Measure Name: IC50

Example cases with answers are listed next.
{"columns": ["Smiles String", "Target Entity", "Measure Name", "Reported"],
 "data": [
  ["Cn1cc(-c2cc(-c3cnc4[nH]ccc4c3)ccn2)n(-c2ccc(CC#N)cc2)c1=O", "DNA-PK protein complex (Homo sapiens)", "IC50", "0.1 to 100 nM"],
  ["Cn1cc(-c2cc(-c3ccc(NS(C)(=O)=O)cc3)ccn2)n(-c2ccc(N3CCNCC3)c(C(F)(F)F)c2)c1=O", "DNA-PK protein complex (Homo sapiens)", "IC50", "0.1 to 100 nM"],
  ["Cn1cc(-c2cc(-c3cnc4[nH]ccc4c3)ccn2)n(-c2ccc(C(C)(C)C#N)cc2)c1=O", "DNA-PK protein complex (Homo sapiens)", "IC50", "0.1 to 100 nM"],
  ["Cn1cc(-c2cc(-c3ccc4[nH]ccc4c3)ccn2)n(-c2ccc(N3CCNCC3)c(C(F)(F)F)c2)c1=O", "DNA-PK protein complex (Homo sapiens)", "IC50", "100 to 10000 nM"],
  ["COC(=O)c1c[nH]c2ncc(-c3ccnc(-c4cn(C)c(=O)n4-c4ccc(C(C)(C)C#N)cc4)c3)cc12", "DNA-PK protein complex (Homo sapiens)", "IC50", "0.1 to 100 nM"]
]}

Query: Any idea what IC50 came out for `CN1CCN(c2ccc(-n3c(-c4cc(-c5cnc(N)c(C(F)(F)F)c5)ccn4)cn(C)c3=O)cc2C(F)(F)F)CC1` on DNA-PK protein complex (Homo sapiens)?
Response: 100 to 10000 nM

Query: Param readout = IC50; param system = DNA-PK protein complex (Homo sapiens); param query = `CCOC(=O)C(C)(C)c1ccc(-n2c(-c3cc(-c4cnc5ccccc5c4)ccn3)cn(C)c2=O)cc1` ; response: value
Response: 0.1 to 100 nM

Query: GET /values?readout=IC50&system=DNA-PK protein complex (Homo sapiens)&item= `Cn1cc(-c2cc(-c3ccc(=O)[nH]c3)ccn2)n(-c2ccc(C(C)(C)C#N)cc2)c1=O`
Response: 0.1 to 100 nM

Query: Checklist item: IC50 tested on DNA-PK protein complex (Homo sapiens), entry `Cn1cc(-c2cc(-c3cnc4[nH]ccc4c3)ccn2)n(-c2ccc(N3CCOCC3)c(C(F)(F)F)c2)c1=O` , value?
Response: 0.1 to 100 nM

Query: IC50 of `Cn1cc(-c2cc(-c3cnc4nccnc4c3)ccn2)n(-c2ccc(C(C)(C)C#N)cc2)c1=O` on DNA-PK protein complex (Homo sapiens)?
Response: 0.1 to 100 nM

Query: Form field: IC50 recorded for `Cn1cc(-c2cc(-c3cnc4[nH]ccc4c3)ccn2)n(-c2ccc(C(C)(C)C(N)=O)cc2)c1=O` with DNA-PK protein complex (Homo sapiens) (enter value)
Response: 0.1 to 100 nM

Query: Notebook entry, DNA-PK protein complex (Homo sapiens) assay: IC50 of `Cn1cc(-c2cc(-c3cnc4[nH]ccc4c3)ccn2)n(-c2ccccc2)c1=O` = ?
Response: 0.1 to 100 nM

###

Target: DNA-PK protein complex (Homo sapiens)
Assay: Biochemical DNA-PK assay (FlashPlate)
pIC50: −log10 of the molar value.
Measure Name: pIC50

Solved entries:
{"columns": ["Smiles String", "pIC50"],
 "data": [
  ["CN1CCN(c2ccc(-n3c(-c4cc(-c5cnc6[nH]c(C(F)(F)F)cc6c5)ccn4)cn(C)c3=O)cc2C(F)(F)F)CC1", "7.00 to 10.00"],
  ["Cn1cc(-c2cc(-c3cnc4[nH]ncc4c3)ccn2)n(-c2ccc(C(C)(C)C#N)cc2)c1=O", "7.00 to 10.00"],
  ["CC(C)(C#N)c1ccc(-n2c(-c3cc(-c4cnc5ccccc5c4)ccn3)c[nH]c2=O)cc1", "5.00 to 7.00"],
  ["CC(C)c1cccc(-n2c(-c3cc(-c4cnc5[nH]ccc5c4)ccn3)cn(C)c2=O)c1", "7.00 to 10.00"],
  ["Cn1cc(-c2cc(-c3cnc(N)c(-c4ccccc4)c3)ccn2)n(-c2ccc(C(C)(C)C#N)cc2)c1=O", "7.00 to 10.00"]
]}

Query: Entry `Cc1cc2cc(-c3ccnc(-c4cn(C)c(=O)n4-c4cccc(Oc5ccccc5)c4)c3)cnc2[nH]1` has what pIC50?
Response: 7.00 to 10.00

Query: What measured pIC50 goes with `Cn1cc(-c2cc(-c3cnc4[nH]ccc4n3)ccn2)n(-c2ccc(C(C)(C)C#N)cc2)c1=O` ?
Response: 5.00 to 7.00

Query: Any idea what its pIC50 is? The compound is `CNCc1ccc(-c2ccnc(-c3cn(C)c(=O)n3-c3ccc(C(C)(C)C#N)cc3)c2)cn1`
Response: 5.00 to 7.00
